target under test: Cytochrome P450 1A2 (Homo sapiens) (UniProt P05177)
Sequence (P05177 whole entry, looked up): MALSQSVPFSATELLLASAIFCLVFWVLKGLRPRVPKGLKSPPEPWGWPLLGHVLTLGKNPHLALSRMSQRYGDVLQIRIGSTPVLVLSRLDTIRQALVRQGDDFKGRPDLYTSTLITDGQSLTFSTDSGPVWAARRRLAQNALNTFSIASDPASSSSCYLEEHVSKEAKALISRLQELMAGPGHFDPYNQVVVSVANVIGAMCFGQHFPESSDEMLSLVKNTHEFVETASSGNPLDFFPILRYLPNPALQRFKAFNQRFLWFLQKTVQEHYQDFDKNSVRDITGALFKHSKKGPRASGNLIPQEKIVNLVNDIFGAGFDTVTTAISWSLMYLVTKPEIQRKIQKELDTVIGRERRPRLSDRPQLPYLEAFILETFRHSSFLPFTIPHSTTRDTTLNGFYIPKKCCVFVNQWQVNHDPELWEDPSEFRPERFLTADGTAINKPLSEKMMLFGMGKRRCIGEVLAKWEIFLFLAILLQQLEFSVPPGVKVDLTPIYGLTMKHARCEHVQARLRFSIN
assay explanation: Cytochrome P450 Family 1 Subfamily A Member 2 (CYP1A2) small molecule antagonists: luciferase reporter qHTS assay (AID 1671199); further: nearly all actives have a fitted effect of over 50% in size
condition notes: P450-Glo CYP1A2 enzyme, luciferin luminescence, 1 h; series mostly up to 115 µM
Results filed as inconclusive are left out. Active and inactive are the calls of the source. The call rests on the fitted dose curve; in most records, active means well fitted inhibition curve with a large enough effect in the repeat runs; inconclusive means weak or mixed curves; inactive means no such curve, though single readings can be large or run the other way.
Answer with one of the outcomes YES (active), NO (inactive)

Input: Called result for Cc1ccc(S(=O)(=O)NC(=O)NN2CC3CCCC3C2)cc1 (stereo unspecified)
Output: NO

Input: Called result for `C=CCOC(=O)CCCCCCCC`
Output: YES

Input: Called result for `Cc1ccc2cccnc2c1`
Output: YES

Input: Called result for `C/C=C/C(=O)CCCC`
Output: NO

Input: Called result for `CC(C)OC(=O)C(C(=O)OC(C)C)=C1SC=CS1`
Output: YES

Input: Called result for `CC(C)c1cc(C(C)C)cc(C(C)C)c1`
Output: NO

Input: Called result for `CCOC(=O)COc1ccc2c(C)c(CCN(CC)CC)c(=O)oc2c1Cl`
Output: NO

Input: Called result for `Cc1ccc(Br)cc1`
Output: NO

Input: Called result for `CCCCN(CCCC)CCCCCCN(CCCC)CCCC`
Output: NO

Input: Called result for `CCCCCCCOC(C)=O`
Output: NO

Input: Called result for `COCCCOc1cc(C[C@@H](C[C@H](N)[C@@H](O)C[C@H](C(=O)NCC(C)(C)C(N)=O)C(C)C)C(C)C)ccc1OC`
Output: NO

Input: Called result for `CC(C)OCCO`
Output: NO

Input: Called result for `CC[N+](C)(CC)CC`
Output: NO

Input: Called result for `CCOCCOCCOC(C)=O`
Output: NO

Input: Called result for CCCCCCCCC1CO1 (stereo unspecified)
Output: NO

Input: Called result for `O=C[C@@H](O)[C@H](O)[C@H](O)CO`
Output: NO

Input: Called result for `NNC(=O)CCCCC(=O)NN`
Output: YES

Input: Called result for `O=C(O)COc1ccc2ccccc2c1`
Output: NO

Input: Called result for `O=Cc1ccc(C(=O)O)cc1`
Output: NO

Input: Called result for `C=C(C)C(=O)OCCCC`
Output: NO

Input: Called result for `CCCCCCCCCCCBr`
Output: NO

Input: Called result for `NS(=O)(=O)c1cc2c(cc1C(F)(F)F)NCNS2(=O)=O`
Output: NO

Input: Called result for `O=CN1CCCCC1`
Output: NO

Input: Called result for CCCCC(O)/C=C(C)/C=C/C=C/C(=O)N1CCCC1=O (stereo unspecified)
Output: NO

Input: Called result for N[C@H]1C(O)O[C@H](CO)[C@@H](O)[C@@H]1O (stereo partly specified)
Output: NO

Input: Called result for `CCN(CC)CC`
Output: NO

Input: Called result for `O=S(=O)(O)c1ccc(Cl)cc1`
Output: NO

Input: Called result for `CCCCCCCC(=O)N(C)C`
Output: NO

Input: Called result for `CCN1CCN(C(=O)N[C@@H](C(=O)N[C@@H]2C(=O)N3[C@@H]2SC(C)(C)[C@H]3C(=O)O)c2ccccc2)C(=O)C1=O`
Output: NO

Input: Called result for `COc1cc(S(N)(=O)=O)cc(C(=O)O)c1OC`
Output: NO

Input: Called result for `CNCCc1ccccn1`
Output: NO

Input: Called result for CC(=O)SCC(CC(=O)c1ccc(C)cc1)C(=O)O (stereo unspecified)
Output: NO

Input: Called result for `c1cc2ccc3ccc4ccc5cccc6c(c1)c2c3c4c56`
Output: YES

Input: Called result for `CCOC(=O)CC(C(C)=O)C(C)=O`
Output: NO

Input: Called result for `CC(=O)c1ccc2ccc3ccccc3c2c1`
Output: YES

Input: Called result for CC(=O)O[C@@H]1CC2C3CCc4cc(OC(=O)c5ccccc5)ccc4C3CCC2(C)[C@H]1OC(C)=O (stereo partly specified)
Output: NO

Input: Called result for `COC(=O)N/N=C/c1c[n+]([O-])c2ccccc2[n+]1[O-]`
Output: NO

Input: Called result for `C[n+]1ccccc1/C=N/O`
Output: NO

Input: Called result for `CCCc1ccc(O)c(OC)c1`
Output: YES

Input: Called result for `COC(=O)c1ccccc1Cl`
Output: NO

Input: Called result for `CCCOc1ccc(C(=O)OCCN(CC)CC)cc1N`
Output: YES

* * *

assay explanation: qHTS assay to identify small molecule antagonists of the androgen receptor (AR) signaling pathway using the MDA cell line in the presence of 0.5 nM R1881 - cell viability counter screen (AID 1259242); further: on the % scale 0 is the no-effect control and ±100 the full control effect; nearly all actives have a fitted effect of over 45% in size
condition notes: MDA-kb2 viability, CellTiter-Fluor protease fluorescence, 16 h; series mostly up to 92.4 µM
Results filed as inconclusive are left out. Activity calls are given as the source filed them. Calls come from the whole dose curve; as a rule, active = well fitted cell-killing curve with a large enough effect in the repeat runs; inconclusive = weak or mixed curves, or effect the other way; inactive = flat fitted curve, though single readings scatter.
measurement kind: viability change, negative = cytotoxic

compound	viability change, negative = cytotoxic
N#Cc1cc(NC(=O)C(=O)O)c(Cl)c(NC(=O)C(=O)O)c1	inactive
CCC(=O)OCCOc1ccccc1	inactive
CC(=O)OC/C=C(/C)CCC=C(C)C	inactive
COC(=O)c1ccc(NC(C)=O)cc1OC	inactive
NCC1CCC(C(=O)Oc2ccc(CCC(=O)O)cc2)CC1 (centres undefined)	inactive

Could you now consider this next compound?
Input: Need viability change, negative = cytotoxic, item `Cc1ccc2cccnc2c1`
Output: inactive

* * *

assay explanation: qHTS assay to test for compound auto fluorescence at 590 nm (red) in HEK293 cells (AID 720679); further: on the % scale 0 is the no-effect control and ±100 the full control effect
condition notes: red autofluorescence 540/590 nm; series mostly up to 91.3 µM
Calls of active or inactive are those of the source. Calls come from the whole dose curve; as a rule, active = well fitted curve in the direction sought with a large enough effect in the repeat runs; inconclusive = weak or mixed curves; inactive = flat fitted curve, though single readings scatter.
measurement kind: fluorescence, % of fluorescent control

compound	fluorescence, % of fluorescent control
CC(C)c1cc(C(C)C)cc(C(C)C)c1	inactive
CC(C)(O)c1ccc(C(C)(C)O)cc1	inactive
CN(C)c1cc(NC(=O)CNC(C)(C)C)c(O)c2c1C[C@H]1C[C@H]3[C@H](N(C)C)C(=O)C(C(N)=O)=C(O)[C@@]3(O)C(=O)C1=C2O	inactive
C=C(C)C(=O)OCCCC	inactive
CCNC(=O)C(C)OC(=O)Nc1ccccc1 (stereo unspecified)	inactive
CCCC(=O)CC	inactive
CC/C=C/CCCCCCCCCCOC(C)=O	inactive
C[C@@H]1NC(=O)[C@@H](N)CNC(=O)[C@H](C2CCNC(N)=N2)NC(=O)/C(=C/NC(N)=O)NC(=O)[C@H](CNC(=O)C[C@@H](N)CCCN)NC1=O (stereo partly specified)	inactive

Input: Need fluorescence, % of fluorescent control, item `COCc1nnc(-c2ccc[n+]([O-])c2)n1-c1c(Cl)c(Cl)cc2[nH]c(=O)c(=O)[nH]c12`
Output: inactive

Input: Need fluorescence, % of fluorescent control, item `CCCCN1C(=O)c2ccccc2C1=O`
Output: inactive

Input: Need fluorescence, % of fluorescent control, item `CC[N+](C)(CC)CC`
Output: inactive

Input: Need fluorescence, % of fluorescent control, item `Cc1cc(O)c(Cl)cc1C`
Output: inactive

Input: Need fluorescence, % of fluorescent control, item `O=C(O)/C=C(\CC(=O)O)C(=O)O`
Output: inactive

Input: Need fluorescence, % of fluorescent control, item `COC(=O)c1ccc(C(=O)O)cc1`
Output: inactive

Input: Need fluorescence, % of fluorescent control, item `CN(C)CCc1c[nH]c2ccc(CS(=O)(=O)N3CCCC3)cc12`
Output: inactive

Input: Need fluorescence, % of fluorescent control, item CCCC(=O)C(CC)Sc1ccoc1C (stereo unspecified)
Output: inactive

Input: Need fluorescence, % of fluorescent control, item `CC(=O)Oc1ccc(C(C)=O)cc1`
Output: inactive

Input: Need fluorescence, % of fluorescent control, item `O=C(O)P(=O)(O)O`
Output: inactive

Input: Need fluorescence, % of fluorescent control, item `CCCCCCCCCCCC(C)=O`
Output: inactive

Input: Need fluorescence, % of fluorescent control, item `C/C=C/C(=O)CCCC`
Output: inactive

Input: Need fluorescence, % of fluorescent control, item `C[C@H]1COc2c(C3(N)CC3)c(F)cc3c(=O)c(C(=O)O)cn1c23`
Output: inactive

Input: Need fluorescence, % of fluorescent control, item `CN(C)CCCN(C)C`
Output: -0.954% [at 3.72 µM] (inactive)

Input: Need fluorescence, % of fluorescent control, item CCCCCC(CC)OC(=O)CCCOc1ccc(Cl)cc1Cl (stereo unspecified)
Output: inactive

Input: Need fluorescence, % of fluorescent control, item CC(=O)OC1CCC(C(C)(C)C)CC1 (stereo unspecified)
Output: inactive

Input: Need fluorescence, % of fluorescent control, item `CCCC(=O)OC`
Output: inactive

Input: Need fluorescence, % of fluorescent control, item `C[C@]12C=CC(=O)C=C1[C@@H](F)C[C@@H]1[C@@H]2[C@@H](O)C[C@@]2(C)[C@H]1CC[C@]2(O)C(=O)CO`
Output: inactive

Input: Need fluorescence, % of fluorescent control, item `CN(C)CCC[C@@]1(c2ccc(F)cc2)OCc2cc(C#N)ccc21`
Output: inactive

Input: Need fluorescence, % of fluorescent control, item `C=CCN(CC=C)CC=C`
Output: inactive
